Tested on: intestinal microbiota (fecal samples) of human subjects
Experiment: in-vitro fermentations of fecal samples (intestinal microbiota-representing microarray) with phytonutrient precursor compounds; further: key: conversion (+); partial conversion (±); no conversion (−)
Format: in vitro ADME
Settings: fecal sample of Subject 2 (S2), in-vitro fermentation
QUANTITY_KIND: Phytonutrient Producer Status: conversion of the phytonutrient precursor compound, S2

1. OC[C@H]1O[C@@H](Oc2cc3c(O)cc(O)cc3[o+]c2-c2ccc(O)c(O)c2)[C@H](O)[C@@H](O)[C@@H]1O [Cyanidin-3-glucoside] | ±
2. Oc1cc(O)c2c(c1)O[C@H](c1cc(O)c(O)c(O)c1)[C@H](O)C2 [Epigallocatechol] | +
3. COc1ccc([C@@H]2CC(=O)c3c(O)cc(O[C@@H]4O[C@H](CO[C@@H]5O[C@@H](C)[C@H](O)[C@@H](O)[C@H]5O)[C@@H](O)[C@H](O)[C@H]4O)cc3O2)cc1O | +
